Hey, just so you know, these numbers are from ChEMBL document CHEMBL3351346.

- Test system: Canis familiaris
- test.protocol: Oral bioavailability in fasted Beagle dog assessed as assessed as ertapenem and monoetser metabolites level at 10 mg/kg dosed through intraduodenal route by LC-MS/MS method
- Type: ADME, organism-based, Canis lupus familiaris
- condition.context: in vivo
Assign classes using reported F values and the ranges low class (below 3%), middle class (3% to below 20%), high class (20% or more), please.

Ask: Which F category applies to `C[C@@H](O)[C@H]1C(=O)N2C(C(=O)OCC(F)(F)F)=C(S[C@@H]3CN[C@H](C(=O)Nc4cccc(C(=O)OCC(F)(F)F)c4)C3)[C@H](C)[C@H]12` here?
Result: middle class

Ask: Which F category applies to `CCOC(=O)C1=C(S[C@@H]2CN[C@H](C(=O)Nc3cccc(C(=O)OCC)c3)C2)[C@H](C)[C@@H]2[C@@H]([C@@H](C)OC(C)=O)C(=O)N12` here?
Result: high class

Ask: Which F category applies to `CC(=O)O[C@H](C)[C@H]1C(=O)N2C3=C(S[C@@H]4CN[C@@H](C4)C(=O)Nc4cccc(c4)C(=O)OCOCOC3=O)[C@H](C)[C@H]12` here?
Result: middle class

Ask: Which F category applies to `COC(=O)C1=C(S[C@@H]2CN[C@H](C(=O)Nc3cccc(C(=O)OC)c3)C2)[C@H](C)[C@@H]2[C@@H]([C@@H](C)O)C(=O)N12` here?
Result: high class

Ask: Which F category applies to `C[C@@H](O)[C@H]1C(=O)N2C(C(=O)OCc3oc(=O)oc3C(C)(C)C)=C(S[C@@H]3CN[C@H](C(=O)Nc4cccc(C(=O)OCc5oc(=O)oc5C(C)(C)C)c4)C3)[C@H](C)[C@H]12` here?
Result: low class

Ask: Which F category applies to `CC(C)CCC[C@@H](C)[C@H]1CC[C@H]2[C@@H]3CC=C4C[C@@H](OC(=O)COC(=O)c5cccc(NC(=O)[C@@H]6C[C@H](SC7=C(C(=O)OCC(F)(F)F)N8C(=O)[C@H]([C@@H](C)O)[C@H]8[C@H]7C)CN6)c5)CC[C@]4(C)[C@H]3CC[C@]12C` here?
Result: low class

Ask: Which F category applies to `CCCCOC(=O)C1=C(S[C@@H]2CN[C@H](C(=O)Nc3cccc(C(=O)OCCCC)c3)C2)[C@H](C)[C@@H]2[C@@H]([C@@H](C)O)C(=O)N12` here?
Result: middle class

Ask: Which F category applies to `CCOC(=O)C1=C(S[C@@H]2CN[C@H](C(=O)Nc3cccc(C(=O)OCC)c3)C2)[C@H](C)[C@@H]2[C@@H]([C@@H](C)O)C(=O)N12` here?
Result: high class

Ask: Which F category applies to `CCCCCCCCOC(=O)C1=C(S[C@@H]2CN[C@H](C(=O)Nc3cccc(C(=O)OCCCCCCCC)c3)C2)[C@H](C)[C@@H]2[C@@H]([C@@H](C)O)C(=O)N12` here?
Result: low class

====

Would you kindly list remaining at 1 h, 50 µM for each of these compounds?
- test.protocol: Stability in rat plasma assessed as compound remaining at 50 uM at 37 degC after 60 mins by LC-MS/MS method
- Assay type: ADME, cell-free
- condition.context: read-out: Stability
Express the result in % but write the number alone.

Ask: Identify measured remaining at 1 h, 50 µM corresponding to CC(OC(=O)C1=C(S[C@@H]2CN[C@H](C(=O)Nc3cccc(C(=O)OC(C)OC(=O)C(C)(C)C)c3)C2)[C@H](C)[C@@H]2[C@@H]([C@@H](C)O)C(=O)N12)OC(=O)C(C)(C)C (stereo partly specified)
Result: 2

Ask: Identify measured remaining at 1 h, 50 µM corresponding to `CCOC(=O)OCOC(=O)C1=C(S[C@@H]2CN[C@H](C(=O)Nc3cccc(C(=O)OCOC(=O)OCC)c3)C2)[C@H](C)[C@@H]2[C@@H]([C@@H](C)O)C(=O)N12`
Result: 0

Ask: Identify measured remaining at 1 h, 50 µM corresponding to `CC(C)C(=O)OCOC(=O)c1cccc(NC(=O)[C@@H]2C[C@H](SC3=C(C(=O)O)N4C(=O)[C@H]([C@@H](C)O)[C@H]4[C@H]3C)CN2)c1`
Result: 0

Ask: Identify measured remaining at 1 h, 50 µM corresponding to `C[C@@H](O)[C@H]1C(=O)N2C(C(=O)OCOC(=O)OC3CCCCC3)=C(S[C@@H]3CN[C@H](C(=O)Nc4cccc(C(=O)OCOC(=O)OC5CCCCC5)c4)C3)[C@H](C)[C@H]12`
Result: 10

Ask: Identify measured remaining at 1 h, 50 µM corresponding to `C[C@@H](O)[C@H]1C(=O)N2C(C(=O)OCc3oc(=O)oc3C(C)(C)C)=C(S[C@@H]3CN[C@H](C(=O)Nc4cccc(C(=O)OCc5oc(=O)oc5C(C)(C)C)c4)C3)[C@H](C)[C@H]12`
Result: 0

Ask: Identify measured remaining at 1 h, 50 µM corresponding to `CCOC(=O)C1=C(S[C@H]2C[C@@H](C(=O)Nc3cccc(C(=O)OCC)c3)N(Cc3oc(=O)oc3C)C2)[C@H](C)[C@@H]2[C@@H]([C@@H](C)O)C(=O)N12`
Result: 0

Ask: Identify measured remaining at 1 h, 50 µM corresponding to `CC(C)OC(=O)OCOC(=O)C1=C(S[C@@H]2CN[C@H](C(=O)Nc3cccc(C(=O)O)c3)C2)[C@H](C)[C@@H]2[C@@H]([C@@H](C)O)C(=O)N12`
Result: 0

Ask: Identify measured remaining at 1 h, 50 µM corresponding to `CC(C)CCC[C@@H](C)[C@H]1CC[C@H]2[C@@H]3CC=C4C[C@@H](OC(=O)COC(=O)c5cccc(NC(=O)[C@@H]6C[C@H](SC7=C(C(=O)OCC(F)(F)F)N8C(=O)[C@H]([C@@H](C)O)[C@H]8[C@H]7C)CN6)c5)CC[C@]4(C)[C@H]3CC[C@]12C`
Result: 97

Ask: Identify measured remaining at 1 h, 50 µM corresponding to `CC(C)OC(=O)C1=C(S[C@@H]2CN[C@H](C(=O)Nc3cccc(C(=O)OC(C)C)c3)C2)[C@H](C)[C@@H]2[C@@H]([C@@H](C)O)C(=O)N12`
Result: 0

Ask: Identify measured remaining at 1 h, 50 µM corresponding to `CC(C)C(=O)OCOC(=O)C1=C(S[C@@H]2CN[C@H](C(=O)Nc3cccc(C(=O)[O-])c3)C2)[C@H](C)[C@@H]2[C@@H]([C@@H](C)O)C(=O)N12.[Na+]`
Result: 0

Ask: Identify measured remaining at 1 h, 50 µM corresponding to `CCCCOC(=O)C1=C(S[C@@H]2CN[C@H](C(=O)Nc3cccc(C(=O)OCCCC)c3)C2)[C@H](C)[C@@H]2[C@@H]([C@@H](C)O)C(=O)N12`
Result: 2

Ask: Identify measured remaining at 1 h, 50 µM corresponding to `CC(C)C(=O)OCOC(=O)C1=C(S[C@@H]2CN[C@H](C(=O)Nc3cccc(C(=O)OCOC(=O)C(C)C)c3)C2)[C@H](C)[C@@H]2[C@@H]([C@@H](C)O)C(=O)N12`
Result: 1

Ask: Identify measured remaining at 1 h, 50 µM corresponding to `C[C@@H](O)[C@H]1C(=O)N2C3=C(S[C@@H]4CN[C@@H](C4)C(=O)Nc4cccc(c4)C(=O)OCOCOC3=O)[C@H](C)[C@H]12`
Result: 0

Ask: Identify measured remaining at 1 h, 50 µM corresponding to `CCC(=O)OCOC(=O)C1=C(S[C@@H]2CN[C@H](C(=O)Nc3cccc(C(=O)OCOC(=O)CC)c3)C2)[C@H](C)[C@@H]2[C@@H]([C@@H](C)O)C(=O)N12`
Result: 0

Ask: Identify measured remaining at 1 h, 50 µM corresponding to `CCC(CC)C(=O)OCOC(=O)C1=C(S[C@@H]2CN[C@H](C(=O)Nc3cccc(C(=O)O)c3)C2)[C@H](C)[C@@H]2[C@@H]([C@@H](C)O)C(=O)N12`
Result: 0

Ask: Identify measured remaining at 1 h, 50 µM corresponding to `CC(=O)O[C@H](C)[C@H]1C(=O)N2C3=C(S[C@@H]4CN[C@@H](C4)C(=O)Nc4cccc(c4)C(=O)OCOCOC3=O)[C@H](C)[C@H]12`
Result: 0

Ask: Identify measured remaining at 1 h, 50 µM corresponding to `CCCOC(=O)C1=C(S[C@@H]2CN[C@H](C(=O)Nc3cccc(C(=O)OCCC)c3)C2)[C@H](C)[C@@H]2[C@@H]([C@@H](C)O)C(=O)N12`
Result: 0

Ask: Identify measured remaining at 1 h, 50 µM corresponding to `CCOC(=O)C1=C(S[C@H]2C[C@@H](C(=O)Nc3cccc(C(=O)OCC)c3)N(C(=O)OCc3oc(=O)oc3C)C2)[C@H](C)[C@@H]2[C@@H]([C@@H](C)O)C(=O)N12`
Result: 0

Ask: Identify measured remaining at 1 h, 50 µM corresponding to `Cc1oc(=O)oc1COC(=O)N1C[C@@H]2C[C@H]1C(=O)Nc1cccc(c1)C(=O)OC/C=C\COC(=O)C1=C(S2)[C@H](C)[C@@H]2[C@@H]([C@@H](C)O)C(=O)N12`
Result: 0

Ask: Identify measured remaining at 1 h, 50 µM corresponding to `CC(=O)OCOC(=O)C1=C(S[C@@H]2CN[C@H](C(=O)Nc3cccc(C(=O)OCOC(C)=O)c3)C2)[C@H](C)[C@@H]2[C@@H]([C@@H](C)O)C(=O)N12`
Result: 0

Ask: Identify measured remaining at 1 h, 50 µM corresponding to `C[C@@H](O)[C@H]1C(=O)N2C(C(=O)OCOC(=O)OC(C)(C)C)=C(S[C@@H]3CN[C@H](C(=O)Nc4cccc(C(=O)O)c4)C3)[C@H](C)[C@H]12`
Result: 0
